For E. coli JM83 cells harboring pUC19, measured MIC is reported for the entries below.
// unit must come after the numeric part

Previously resolved entries follow.
molecule	reading
NC[C@H]1O[C@H](O[C@H]2[C@H](O)[C@@H](O[C@H]3O[C@H](CO)[C@@H](O)[C@H](N)[C@H]3O)[C@H](N)C[C@@H]2N)[C@H](O)[C@@H](O)[C@@H]1O	25 µg/mL
O=C1C=CC(O)C1O (centres unmarked) [DHCP, 4,5-dihydroxy-2-cyclopenten-1-one]	25 µg/mL
CN(C)[C@@H]1C(O)=C(C(N)=O)C(=O)[C@@]2(O)C(O)=C3C(=O)c4c(O)cccc4[C@@](C)(O)[C@H]3C[C@@H]12	3.12 µg/mL

Task item: Under E. coli JM83 cells harboring pUC19: report MIC of CN[C@@H]1[C@H](O)[C@H](NC)[C@H]2O[C@@]3(O)C(=O)C[C@@H](C)O[C@H]3O[C@@H]2[C@H]1O .
Reply: 12.5 µg/mL

Task item: Under E. coli JM83 cells harboring pUC19: report MIC of O=C(N[C@H](CO)[C@H](O)c1ccc([N+](=O)[O-])cc1)C(Cl)Cl .
Reply: 6.25 µg/mL
